System: Erysiphe graminis f. sp. tritici
ASSAY_DETAILS: Test A: wheat powdery mildew, preventive spray on wheat seedlings, visual disease rating
Type: in vivo
ASSAY_SETUP: 40 ppm (*), 100 = 100% disease control
Marks after values point to notes of the source that are not given here.
ASSAY_READOUT: Test A disease control rating

# input // query Test A disease control rating value for entry CCOc1cc(F)ccc1-c1ccn(-c2ccc(C)c(CNC(=O)OC)c2)n1
# output 98* %

# input // query Test A disease control rating value for entry COC(=O)NCc1cc(-n2ccc(-c3ccc(OC)cc3C3CC3)n2)ccc1C
# output 99* %

# input // query Test A disease control rating value for entry COC(=O)NCc1cc(-n2ccc(-c3ccc(Cl)nc3OC)n2)ccc1C
# output 98* %

# input // query Test A disease control rating value for entry COC(=O)NCc1cc(-n2ncc(-c3ccc(Cl)cc3Cl)n2)ccc1C
# output 99* %

# input // query Test A disease control rating value for entry C=CCOc1cc(OC)ccc1-c1cnn(-c2ccc(C)c(CNC(=O)OC)c2)n1
# output 90* %

# input // query Test A disease control rating value for entry CCOc1ccc(-c2ccn(-c3ccc(C)c(CNC(=O)OC)c3)n2)c(C)c1
# output 99* %

# input // query Test A disease control rating value for entry COC(=O)NCc1cc(-c2ccn(-c3ccc(Cl)cc3Br)n2)ccc1C
# output 100* %

# input // query Test A disease control rating value for entry COC(=O)NCc1cc(-n2ncc(-c3ccc(OC)cc3I)n2)ccc1C
# output 99* %

# input // query Test A disease control rating value for entry COC(=O)NCc1cc(-n2ncc(-c3ccc(OC)cc3Cl)n2)ccc1C
# output 100* %

# input // query Test A disease control rating value for entry COC(=O)NCc1cc(-n2ncc(-c3ccc(C)cc3OCC#N)n2)ccc1C
# output 95* %

# input // query Test A disease control rating value for entry COC(=O)NCc1cc(-n2ccc(-c3ccc(Br)cc3C)n2)ccc1C
# output 99* %

# input // query Test A disease control rating value for entry COC(=O)NCc1cc(-c2ccn(-c3ccc(Br)cc3[N+](=O)[O-])n2)ccc1C
# output 0* %

# input // query Test A disease control rating value for entry COC(=O)NCc1cc(-n2ccc(-c3ccc(C)cc3F)n2)ccc1C
# output 100* %

# input // query Test A disease control rating value for entry COC(=O)NCc1cc(-n2ccc(-c3ccc(Cl)cc3F)n2)ccc1C
# output 99* %

# input // query Test A disease control rating value for entry COC(=O)NCc1cc(-n2ccc(-c3ccc(F)cc3Br)n2)ccc1C
# output 100* %

# input // query Test A disease control rating value for entry CCOc1cc(Cl)ccc1-c1ccn(-c2ccc(C)c(CNC(=O)OC)c2)n1
# output 100* %
